All values here come from patent US20250250357A1.

// OD450 at 100 nM lookup, one value per entry
# SYSTEM: T1, human MSLN-R1-his protein (human, UniProt Q13421 296-390)
# T1 construct: Region 1 of human MSLN, His-tagged; also called human MSLN-R1 protein; hMSLN-R1-his; not shown: His tag
# T1 chain: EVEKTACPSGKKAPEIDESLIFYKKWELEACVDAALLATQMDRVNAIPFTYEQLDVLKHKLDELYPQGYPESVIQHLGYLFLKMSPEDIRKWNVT
# TEST_METHOD_NOTES: ELISA, coated MSLN-R1;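 also: serially diluted chimeric antibodies bound to the coated, BSA-blocked plate for 2 h at 37 °C, with TMB colour read after acid stop and a negative control antibody alongside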
Give just the number in OD450; leave the unit off.

In the examples that follow, each entry is paired with its recorded OD450 at 100 nM.
BINDER | MEASUREMENT_UNIT | OD450 at 100 nM
S009-F2.13.3 (antibody, human IgG1, kappa, V domains shown, Human-murine chimeric antibody, human IgG1/kappa constant regions) VH: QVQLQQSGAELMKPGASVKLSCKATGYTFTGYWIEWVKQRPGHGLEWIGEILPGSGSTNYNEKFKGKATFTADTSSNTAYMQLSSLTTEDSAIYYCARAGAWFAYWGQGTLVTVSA VL: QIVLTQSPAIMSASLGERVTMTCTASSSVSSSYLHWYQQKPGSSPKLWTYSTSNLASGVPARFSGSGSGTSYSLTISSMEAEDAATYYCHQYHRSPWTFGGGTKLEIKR | OD450 | 0.06
S009-F2.39.3 (antibody, human IgG1, kappa, V domains shown, Human-murine chimeric antibody, human IgG1/kappa constant regions) VH: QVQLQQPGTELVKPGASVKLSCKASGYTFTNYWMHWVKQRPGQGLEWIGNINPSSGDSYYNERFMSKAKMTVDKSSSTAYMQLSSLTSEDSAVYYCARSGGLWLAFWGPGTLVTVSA VL: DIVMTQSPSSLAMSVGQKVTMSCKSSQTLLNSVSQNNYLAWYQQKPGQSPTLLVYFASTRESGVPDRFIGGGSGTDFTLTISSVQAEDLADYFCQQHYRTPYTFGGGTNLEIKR | OD450 | 0.07
S009-F2.21.4 (antibody, human IgG1, kappa, V domains shown, Human-murine chimeric antibody, human IgG1/kappa constant regions) VH: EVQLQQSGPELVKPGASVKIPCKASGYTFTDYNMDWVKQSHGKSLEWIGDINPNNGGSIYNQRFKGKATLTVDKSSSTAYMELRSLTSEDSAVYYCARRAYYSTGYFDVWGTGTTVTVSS VL: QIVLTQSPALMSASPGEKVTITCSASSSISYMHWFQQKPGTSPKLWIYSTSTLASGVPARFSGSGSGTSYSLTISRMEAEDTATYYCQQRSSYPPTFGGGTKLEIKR | OD450 | 0.06
S009-F2.23.12 (antibody, human IgG1, kappa, V domains shown, Human-murine chimeric antibody, human IgG1/kappa constant regions) VH: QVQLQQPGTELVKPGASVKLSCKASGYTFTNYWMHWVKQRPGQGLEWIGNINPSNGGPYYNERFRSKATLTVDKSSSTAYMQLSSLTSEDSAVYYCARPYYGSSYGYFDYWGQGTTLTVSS VL: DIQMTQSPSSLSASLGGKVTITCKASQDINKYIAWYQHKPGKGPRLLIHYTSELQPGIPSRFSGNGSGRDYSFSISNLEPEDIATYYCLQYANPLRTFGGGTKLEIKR | OD450 | 0.06
S009-F2.58.8 (antibody, human IgG1, kappa, V domains shown, Human-murine chimeric antibody, human IgG1/kappa constant regions) VH: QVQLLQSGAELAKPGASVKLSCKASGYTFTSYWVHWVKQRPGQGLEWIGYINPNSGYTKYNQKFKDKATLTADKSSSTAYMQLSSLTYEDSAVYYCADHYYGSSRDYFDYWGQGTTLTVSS VL: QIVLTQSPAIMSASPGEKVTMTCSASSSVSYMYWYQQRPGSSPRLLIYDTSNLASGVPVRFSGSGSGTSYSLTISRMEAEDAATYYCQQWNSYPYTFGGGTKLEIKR | OD450 | 0.83
S009-F2.16.10 (antibody, human IgG1, kappa, V domains shown, Human-murine chimeric antibody, human IgG1/kappa constant regions) VH: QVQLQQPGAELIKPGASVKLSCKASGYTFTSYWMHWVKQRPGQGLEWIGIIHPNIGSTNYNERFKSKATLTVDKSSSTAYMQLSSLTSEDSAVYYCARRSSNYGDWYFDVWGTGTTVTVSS VL: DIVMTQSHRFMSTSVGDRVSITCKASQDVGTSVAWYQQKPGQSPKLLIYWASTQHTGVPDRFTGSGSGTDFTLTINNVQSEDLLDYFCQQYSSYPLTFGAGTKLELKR | OD450 | 2.03

Please fill in: OD450 at 100 nM reported for S009-F2.47.1 (antibody, human IgG1, kappa, V domains shown, Human-murine chimeric antibody, human IgG1/kappa constant regions) VH: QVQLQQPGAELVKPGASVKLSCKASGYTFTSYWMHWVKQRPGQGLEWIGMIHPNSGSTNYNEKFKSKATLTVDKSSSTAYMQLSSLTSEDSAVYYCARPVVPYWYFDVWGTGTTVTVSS VL: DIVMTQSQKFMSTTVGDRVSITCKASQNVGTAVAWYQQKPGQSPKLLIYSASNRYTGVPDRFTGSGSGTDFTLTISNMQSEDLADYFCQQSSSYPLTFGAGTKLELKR = 0.36
